- TARGET_UNDER_TEST: PAD4 enzyme (Homo sapiens (Human), UniProt Q9UM07)
- Sequence (Q9UM07 whole entry): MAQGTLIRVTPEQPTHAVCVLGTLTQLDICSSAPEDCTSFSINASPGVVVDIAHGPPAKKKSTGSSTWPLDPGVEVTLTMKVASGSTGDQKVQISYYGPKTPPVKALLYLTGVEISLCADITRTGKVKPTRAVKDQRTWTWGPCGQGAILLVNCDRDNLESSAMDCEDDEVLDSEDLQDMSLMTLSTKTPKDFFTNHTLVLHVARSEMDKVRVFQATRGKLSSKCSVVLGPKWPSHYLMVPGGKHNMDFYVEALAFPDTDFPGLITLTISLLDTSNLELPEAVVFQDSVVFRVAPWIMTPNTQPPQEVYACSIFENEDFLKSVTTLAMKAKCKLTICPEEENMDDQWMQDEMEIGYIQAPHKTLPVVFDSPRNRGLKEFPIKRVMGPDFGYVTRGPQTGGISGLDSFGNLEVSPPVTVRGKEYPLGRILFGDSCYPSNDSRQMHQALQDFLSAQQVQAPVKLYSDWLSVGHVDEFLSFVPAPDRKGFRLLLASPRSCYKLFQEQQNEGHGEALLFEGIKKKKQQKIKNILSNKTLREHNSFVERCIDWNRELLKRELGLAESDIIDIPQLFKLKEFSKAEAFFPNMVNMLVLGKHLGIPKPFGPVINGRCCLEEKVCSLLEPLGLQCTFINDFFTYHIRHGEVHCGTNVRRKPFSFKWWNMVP
- ASSAY_NOTES: FP Binding assay
- MEASUREMENT_SETUP: fluorescein labelled probe JPAD-00085, 60 minutes
pIC50: −log10 of the molar value.
Catalogue of pIC50 values

Solved cases (2 shown):
[[record]]
compound = "N[C@@H]1CCCN(C(=O)c2cc3c4c(c2)nc(-c2cc5cc(F)ccc5n2CC2CC2)n4CCN3)C1"
measured_quantity = "pIC50"
readout_value = "≥ 6.00"

[[record]]
compound = "N[C@@H]1CCCN(C(=O)c2cc3c4c(c2)nc(-c2cc5ccccc5n2Cc2ccncc2)n4CCO3)C1"
measured_quantity = "pIC50"
readout_value = "≥ 6.00"


**Query** Given the compound N[C@@H]1CCCN(C(=O)c2cc3c4c(c2)nc(-c2cc5ccccc5n2CC2CC2)n4CCN3)C1 , what is its reported pIC50?
**Result** ≥ 6.00

**Query** Query: pIC50; subject: N[C@@H]1CCCN(C(=O)c2cc3c4c(c2)nc(-c2cc5cc(F)c(F)cc5n2CC2CC2)n4CCN3)C1
**Result** ≥ 6.00

**Query** // query pIC50 value for entry NCC1CCCCN1C(=O)c1cc2c3c(c1)nc(-c1cc4ccccc4n1CC1CC1)n3CCO2 (stereo not shown)
**Result** ≤ 5.00

**Query** Look up pIC50 for this compound: COc1ccc(Cn2c(-c3nc4cc(C(=O)N5CCC[C@@H](N)C5)cc5c4n3CCO5)cc3ccccc32)cc1
**Result** ≥ 6.00

**Query** Quick one: pIC50 of COc1ccc2cc(-c3nc4cc(C(=O)N5CCC[C@@H](N)C5)cc5c4n3CCN5)n(CC3CC3)c2c1 ?
**Result** ≥ 6.00
